Assay: Cytotoxicity against human HeLa-RH cells
Format: toxicity, cell-based
Value type: CC50

Some solved entries appear below for comparison.
- Compound: "CCOP(=O)(OCC)C(Nc1ccc(C)cc1)c1cc(Cn2cc(Cn3c(=O)cc(C)c4cc(F)ccc43)nn2)ccc1O (stereo not drawn)"
  Value type: "CC50"
  Result: "> 100 µM"
- Compound: "CCOP(=O)(OCC)C(Nc1ccc(F)cc1)c1cc(Cn2cc(Cn3c(=O)cc(C)c4cc(Br)ccc43)nn2)ccc1O (stereo not drawn)"
  Value type: "CC50"
  Result: "20.9 µM"

Item under review: CCOP(=O)(OCC)C(Nc1ccccc1Cl)c1cc(Cn2cc(Cn3c(=O)cc(C)c4ccccc43)nn2)ccc1O (stereo not drawn) . Reported CC50?
52.1 µM

Item under review: CCOP(=O)(OCC)C(Nc1ccccc1)c1cc(Cn2cc(Cn3c(=O)cc(C)c4cc(Br)ccc43)nn2)ccc1O (stereo not drawn) . Reported CC50?
> 100 µM

Item under review: CCOP(=O)(OCC)C(Nc1ccccc1)c1cc(Cn2cc(Cn3c(=O)cc(C)c4ccccc43)nn2)ccc1O (stereo not drawn) . Reported CC50?
> 100 µM

Item under review: "Cc1cc(CCCOc2c(C)cc(-c3noc(C(F)(F)F)n3)cc2C)on1" . Reported CC50?
> 100 µM

Item under review: CCOP(=O)(OCC)C(Nc1ccc(I)cc1)c1cc(Cn2cc(Cn3c(=O)cc(C)c4cc(F)ccc43)nn2)ccc1O (stereo not drawn) . Reported CC50?
> 33.3 µM

Item under review: CCOP(=O)(OCC)C(Nc1ccccc1Br)c1cc(Cn2cc(Cn3c(=O)cc(C)c4ccccc43)nn2)ccc1O (stereo not drawn) . Reported CC50?
45.7 µM
